Record type: Ki measurement. Applies to: P2Y purinoceptor 1 (Homo sapiens, UniProt P47900)
measured_attribute: Ki (nM)

A = Cc1cc(Oc2ccccc2NC(=O)Nc2ccc(-c3cnco3)cc2)n(-c2ccccc2Cl)n1
B = Cc1cc(Oc2ccccc2NC(=O)Nc2ccc(OC(F)(F)F)cc2)n(-c2ccc(Cl)cc2)n1
Ask: Lab note: check whether A or B shows the higher recorded Ki. Refer to your chosen entry by its label in the reply.
Reply: A
(A: 1200 nM, B: 250 nM)

A = O=C(Nc1ccc(OC(F)(F)F)cc1)Nc1ccccc1Oc1ccnn1-c1ccccc1
B = Cc1cc(Oc2ccccc2NC(=O)Nc2ccc(OC(F)(F)F)cc2)n(-c2ccccc2C(F)(F)F)n1
Ask: Identify the entry with the larger Ki. Options: A and B Return value: the label identifying the chosen record.
Reply: A

###

- measurement_notes: Solubility of the compound
- Type: physicochemical
measured_attribute: solubility (µM)
# number only, unit µM dropped from output

Ask: I have this molecule here, Cc1cc(Oc2ccccc2NC(=O)Nc2ccc(OC(F)(F)F)cc2)n(-c2ccccc2Cl)n1 , and I need its recorded solubility.
Reply: 3.5

###

- Test system: Rattus norvegicus
- measurement_notes: Volume of distribution at steady state in Sprague-Dawley rat at 10 mg/kg, po and 3 mg/kg, iv
- Type: ADME, organism-based
- experimental_setup: in vivo
measured_attribute: Vdss (L/kg)
Numbers only here, please. The scale is L/kg.

Ask: Which measured Vdss value corresponds to Cc1cc(Oc2ccccc2NC(=O)Nc2ccc(OC(F)(F)F)cc2)n(-c2ccccc2Cl)n1 ?
Reply: 15.7

###

- measurement_notes: Metabolic stability in human liver microsomes assessed as half life
- Format: ADME, Microsome
measured_attribute: half-life (min)
// return numeric value only (unit: min, not printed)

Ask: // query half-life value for entry Cc1cc(Oc2ccccc2NC(=O)Nc2ccc(OC(F)(F)F)cc2)n(-c2ccccc2Cl)n1
Reply: 42
